Origin of values: PubChem BioAssay AID1963856

System: LG0567-F671-PDC KRAS tumor spheroid viability
Assay: Anticancer human tumor LG0567-F671-PDC patient-derived lung adenocarcinoma cell line growth inhibition [KRAS2]
Details: second compound 0.1 µM; first compound 0.1 µM; stronger effect = lower value; spheroids with HUVEC and MSC
Source text: Multicellular complex tumor spheroid response to RAS pathway inhibitors in combination with a targeted agents in patient-derived cell lines with oncogenic KRAS variants from multiple cancer types A high-throughput screen of multi-cell type tumor spheroids was designed to identify active combinations of targeted small molecules and KRAS pathway inhibitors. […] Compounds. […] If the clinical Cmax for an agent had not been determined, the highest concentration tested was 10 microM. […]
quantity_kind: viability, T/C (%)

compound="CCNC(=O)CC1N=C(c2ccc(Cl)cc2)c2cc(OC)ccc2-n2c(C)nnc21 (stereo not given) + C=CC(=O)N1CCN(c2nc(OCC3CCCN3C)nc3c2CCN(c2cccc4cccc(C)c24)C3)CC1CC#N" experimental_target="LG0567-F671-PDC KRAS tumor spheroid viability" reading_unit=% quantitative_readout=41.5
compound="CC(=O)OC12COC1CC(O)C1(C)C(=O)C(O)C3=C(C)C(OC(=O)C(O)C(NC(=O)OC(C)(C)C)c4ccccc4)CC(O)(C(OC(=O)c4ccccc4)C21)C3(C)C (stereo not given) + CC1OCC2(CCN(c3cnc(Sc4ccnc(N)c4Cl)c(N)n3)CC2)C1N" experimental_target="LG0567-F671-PDC KRAS tumor spheroid viability" reading_unit=% quantitative_readout=38.7
compound="CCN1CCN(Cc2ccc(Nc3ncc(F)c(-c4cc(F)c5nc(C)n(C(C)C)c5c4)n3)nc2)CC1 + C=CC(=O)N1CCN(c2nc(OCC3CCCN3C)nc3c2CCN(c2cccc4cccc(C)c24)C3)CC1CC#N" experimental_target="LG0567-F671-PDC KRAS tumor spheroid viability" reading_unit=% quantitative_readout=20
compound="COc1cc(Nc2ncc3c(n2)-c2ccc(Cl)cc2C(c2c(F)cccc2OC)=NC3)ccc1C(=O)O + C=CC(=O)N1CCN(c2nc(OCC3CCCN3C)nc3c2CCN(c2cccc4cccc(C)c24)C3)CC1CC#N" experimental_target="LG0567-F671-PDC KRAS tumor spheroid viability" reading_unit=% quantitative_readout=22.9
compound="CN(C)C/C=C/C(=O)Nc1cc2c(Nc3ccc(F)c(Cl)c3)ncnc2cc1O[C@H]1CCOC1 + CNCc1ccccc1-c1csc(C(C)Nc2nc(C)nc3cc(OC)c(OC)cc23)c1" experimental_target="LG0567-F671-PDC KRAS tumor spheroid viability" reading_unit=% quantitative_readout=51.3

====

test system: LG0567-F671-PDC KRAS tumor spheroid viability; assay: Anticancer human tumor LG0567-F671-PDC cell line growth inhibition [KRAS2]; settings: compound 0.1 µM; stronger effect = lower value; spheroids with HUVEC and MSC;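 note: drug exposure lasted seven days after spheroids formed for three days; 100% = DMSO vehicle control viability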
Let's look at some compounds and their measured viability, T/C.
quantity_kind: viability, T/C

compound=COC(=O)c1ccc2c(C(=Nc3ccc(N(C)C(=O)CN4CCN(C)CC4)cc3)c3ccccc3)c(O)[nH]c2c1 quantity_kind="viability, T/C" result="91% [middle of 5 runs]"
compound=O=C(c1cc(Cc2n[nH]c(=O)c3ccccc23)ccc1F)N1CCN(C(=O)C2CC2)CC1 quantity_kind="viability, T/C" result="99.1% [middle of 5 runs]"
compound=Cn1nccc1Nc1nccc(-c2cc3c(s2)C(C)(C)N(CCN2CCOCC2)C3=O)n1 quantity_kind="viability, T/C" result="89.5% [middle of 5 runs]"
compound="CC(=O)OC12COC1CC(O)C1(C)C(=O)C(O)C3=C(C)C(OC(=O)C(O)C(NC(=O)OC(C)(C)C)c4ccccc4)CC(O)(C(OC(=O)c4ccccc4)C21)C3(C)C (stereo not drawn)" quantity_kind="viability, T/C" result="63.3% [middle of 5 runs]"
compound="C=CC(=O)N1CCN(c2nc(=O)n(-c3c(C)ccnc3C(C)C)c3nc(-c4c(O)cccc4F)c(F)cc23)C(C)C1 (stereo not drawn)" quantity_kind="viability, T/C" result="25.5% [middle of 17 runs]"
compound=CCN1CCN(Cc2ccc(Nc3ncc(F)c(-c4cc(F)c5nc(C)n(C(C)C)c5c4)n3)nc2)CC1 quantity_kind="viability, T/C" result="71% [middle of 5 runs]"
compound="CC(C)NCC(C(=O)N1CCN(c2ncnc3c2C(C)CC3O)CC1)c1ccc(Cl)cc1 (stereo not drawn)" quantity_kind="viability, T/C" result="83.4% [middle of 5 runs]"
compound="CCNC(=O)CC1N=C(c2ccc(Cl)cc2)c2cc(OC)ccc2-n2c(C)nnc21 (stereo not drawn)" quantity_kind="viability, T/C" result="103% [middle of 5 runs]"
